- Tested on: NCI/ADR-RES
- assay.comment: NCI tumour cell line growth inhibition, 48 h
Active and inactive are the calls of the source. No stated cut-off is given here; in the data, active = GI50 up to about 1.1 µM and inactive = higher.
experimental.readout: GI50

Documented GI50 of "Cn1c([C@H](C#N)c2ncccc2[N+](=O)[O-])nc2ccccc21" : 78.2 µM (inactive)

Documented GI50 of "Nc1ccc(C(=O)O)cc1" : > 100 µM (inactive)

Documented GI50 of CCC[C@H](C)[C@H]1NC(=O)[C@@H](NC(=O)[C@@H](CC(C)C)N(C)C(=O)C2CCCN2C(=O)[C@H](C)O)[C@@H](C)OC(=O)[C@H](CC(C)C)N(C)C(=O)[C@@H]2CCCN2C(=O)[C@H](CC(C)C)NC(=O)[C@@H](C)C(=O)[C@H](C(C)C)OC(=O)C[C@@H]1O (stereo partly drawn) : 0.189 µM (active)

Documented GI50 of "C=C1CN=C(Nc2ccc(F)cc2F)S1" : > 100 µM (inactive)

Documented GI50 of "C1CSCC2(COC2)CSCCSCC2(COC2)CS1" : > 100 µM (inactive)

Documented GI50 of "O=C1c2ccccc2-c2c1c1ccccc1c(=O)n2Cc1ccccc1" : > 100 µM (inactive)

Documented GI50 of "O=c1c(Cl)cc2nc3ccccc3sc-2c1Cl" : 21.5 µM (inactive)

Documented GI50 of "COc1ccc(Oc2cnn(C(Br)(Br)C(C)=O)c(=O)c2Br)cc1" : 18.5 µM (inactive)

Documented GI50 of COc1ccc(C2(O)c3ccccc3C(=O)N(C)C2(O)c2ccc(OC)cc2)cc1 (stereo not drawn) : 24 µM (inactive)

Documented GI50 of CN(Cc1ccccc1)C(=S)S [SODIUM BENZYL(METHYL)CARBAMODITHIOATE] : 38.1 µM (inactive)

Documented GI50 of "NCC(=O)Nc1ccc(S(=O)(=O)O)c2cc(S(=O)(=O)O)cc(S(=O)(=O)O)c12" : > 100 µM (inactive)

Documented GI50 of "Nc1ccccc1OCCCOc1ccccc1N" : > 100 µM (inactive)

Documented GI50 of "CC(C)(C)c1ccc2c(c1)OP1(Oc3cccc4cccnc34)(O2)Oc2ccc(C(C)(C)C)cc2O1" : 2.96 µM (inactive)

---

- Test system: HT-29
- assay.comment: NCI tumour cell line growth inhibition, 48 h
Active and inactive are the calls of the source. Rule as the data show it: active = GI50 up to about 1.1 µM and inactive = higher.
Answer each item with its documented GI50.

Documented GI50 of "O=C(O)/C(Cc1ccc([N+](=O)[O-])cc1)=N\O" : > 100 µM (inactive)

Documented GI50 of "CCc1nnc(S)n1/N=C\c1ccc(-c2ccccc2[N+](=O)[O-])o1" : 35.7 µM (inactive)

Documented GI50 of "NNc1nncc2[nH]cnc12" : > 100 µM (inactive)

Documented GI50 of "Cc1cccc2c1c(=O)c1c(O)cc(O)cc1n2C" : 72.3 µM (inactive)

Documented GI50 of "O=S(=O)(O)c1cc(/N=N/c2cc(S(=O)(=O)O)c3cccnc3c2O)ccc1/C=C/c1ccc(/N=N/c2cc(S(=O)(=O)O)c3cccnc3c2O)cc1S(=O)(=O)O" : > 100 µM (inactive)

---

- Tested on: MDA-N
- assay.comment: NCI tumour cell line growth inhibition, 48 h
Calls of active or inactive are those of the source. No stated cut-off is given here; in the data, active = GI50 up to about 1.1 µM and inactive = higher.
Allowed answers: active, inactive

Data request: Please share the test call associated with "O=c1[nH]n(Cc2ccccc2CCl)c2ccc([N+](=O)[O-])cc12" .
Data returned: inactive

Data request: Please share the test call associated with "O=C([C@H](O)[C@@H](O)c1cccc(Cl)c1)C12CC3CC(CC(C3)C1)C2" .
Data returned: inactive

Data request: Please share the test call associated with "Nc1ccc(C(=O)O)cc1" .
Data returned: inactive

Data request: Please share the test call associated with "O=C(O)/C(Cc1ccc([N+](=O)[O-])cc1)=N\O" .
Data returned: inactive

Data request: Please share the test call associated with Cn1c2c(c3ccccc31)CCN1C(=O)CCC21 (stereo not drawn) .
Data returned: inactive

Data request: Please share the test call associated with COc1ccc(C2(O)c3ccccc3C(=O)N(C)C2(O)c2ccc(OC)cc2)cc1 (stereo not drawn) .
Data returned: inactive

Data request: Please share the test call associated with COC(=O)C1=C(OC(=O)/C(=C/c2ccc(Cl)cc2Cl)c2ccc(Cl)cc2Cl)C(C(=O)OC)[C@@]2(O)[C@@H](C(=O)OC)[C@H](C)C[C@@H]1[C@@H]2C(=O)OC (stereo partly drawn) .
Data returned: inactive

Data request: Please share the test call associated with Cc1ccc(S(=O)(=O)NC(=O)NC(CC(N)=O)C(=O)O)cc1 (stereo not drawn) .
Data returned: inactive

Data request: Please share the test call associated with CC1(C)CC2=C(Sc3ccccc3N2)C(=O)C1C(=O)C(=O)Nc1cc(Cl)ccc1Cl (stereo not drawn) .
Data returned: inactive

Data request: Please share the test call associated with O=C(O)C1C2CC3C(OC(=O)C31)C2Br (stereo not drawn) .
Data returned: inactive

Data request: Please share the test call associated with "CC(=N\N=C\c1ccccn1)/C(C)=N/N=C(C)/C(C)=N/N=C(C)/C(C)=N/N=C/c1ccccn1" .
Data returned: inactive

Data request: Please share the test call associated with "Nc1ccccc1OCCCOc1ccccc1N" .
Data returned: inactive

Data request: Please share the test call associated with Cc1ccc2c(c1C)CC1(Cc3ccc(C)c(C)c3C1=O)C2=O (stereo not drawn) .
Data returned: inactive

Data request: Please share the test call associated with "CC(=O)O[C@H]1C(=O)[C@@]2(C)[C@H]([C@H](OC(=O)c3ccccc3)[C@]3(O)C[C@H](OC(=O)[C@H](O)[C@@H](NC(=O)c4ccccc4)c4cccc(N(C)C)c4)C(C)=C1C3(C)C)[C@]1(OC(C)=O)CO[C@@H]1C[C@@H]2O" .
Data returned: active

Data request: Please share the test call associated with "Oc1[nH]c(Nc2cccc(CC(F)(F)F)c2)nc2ncnc1-2" .
Data returned: inactive

Data request: Please share the test call associated with "O=C(O)CN(CC(=O)O)Cc1cc(C#Cc2ccc(C#Cc3ccccc3)cc2)cc(CN(CC(=O)O)CC(=O)O)n1" .
Data returned: inactive

Data request: Please share the test call associated with "CCOC(=O)c1cc(Br)c(-c2onc(C)c2Br)[nH]1" .
Data returned: inactive

Data request: Please share the test call associated with CCOC(=O)C1C(c2ccc3c(c2)OCO3)c2c(n[nH]c2O)CC1(C)O (stereo not drawn) .
Data returned: inactive
